Hi there, I'd appreciate the recorded MFI at 200 nM for every entry that follows.
- experimental_target: T1, human CTLA-4 (Y201V), full length, on transfected cells (human, UniProt P16410 36-223)
- T1 construct: whole, on cells; also called hCTLA-4; HEK293-hCTLA-4 (Y201V)
- T1 sequence (looked up): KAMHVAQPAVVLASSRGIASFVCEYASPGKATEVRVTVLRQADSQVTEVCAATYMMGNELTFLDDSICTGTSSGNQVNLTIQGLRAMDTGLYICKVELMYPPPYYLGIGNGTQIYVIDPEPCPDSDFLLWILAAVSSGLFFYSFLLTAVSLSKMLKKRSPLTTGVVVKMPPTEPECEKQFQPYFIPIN
- procedure_details: FACS, human CTLA-4 expressing cells
Lab note: jot the number down without any unit.

Query :: Please look up its MFI at 200 nM: 92C8B6 fully human CTLA-4 antibody (human IgG1, kappa) (antibody, V domains shown, also called mAb42; mAb042) VH: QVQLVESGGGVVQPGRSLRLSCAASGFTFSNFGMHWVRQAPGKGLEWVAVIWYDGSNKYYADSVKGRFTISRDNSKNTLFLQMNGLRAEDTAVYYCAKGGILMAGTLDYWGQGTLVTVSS VL: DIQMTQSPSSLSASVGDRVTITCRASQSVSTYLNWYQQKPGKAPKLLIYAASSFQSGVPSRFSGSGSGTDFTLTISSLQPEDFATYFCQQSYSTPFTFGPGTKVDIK
Result :: 1060

Query :: Look up MFI at 200 nM for this binder: 97A8D1 fully human CTLA-4 antibody (human IgG1, kappa) (antibody, V domains shown, also called mAb49; mAb049) VH: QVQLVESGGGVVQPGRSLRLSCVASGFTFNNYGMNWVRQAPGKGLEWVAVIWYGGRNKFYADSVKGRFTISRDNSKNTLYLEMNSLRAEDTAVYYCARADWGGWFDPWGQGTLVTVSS VL: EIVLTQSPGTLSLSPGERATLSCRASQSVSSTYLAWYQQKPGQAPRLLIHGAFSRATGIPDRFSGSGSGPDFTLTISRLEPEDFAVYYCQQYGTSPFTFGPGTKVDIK
Result :: 1020

Query :: Reported MFI at 200 nM for 31C12F3 fully human CTLA-4 antibody (human IgG1, kappa) (antibody, V domains shown, also called mAb010) VH: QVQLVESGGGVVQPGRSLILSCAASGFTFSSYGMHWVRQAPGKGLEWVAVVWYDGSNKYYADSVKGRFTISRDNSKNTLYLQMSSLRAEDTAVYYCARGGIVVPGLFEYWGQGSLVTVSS VL: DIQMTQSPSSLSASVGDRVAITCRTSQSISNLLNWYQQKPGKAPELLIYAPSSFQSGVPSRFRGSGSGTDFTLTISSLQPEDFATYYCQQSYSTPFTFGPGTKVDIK : what is it?
Result :: 998

Query :: Entry under review: 40C4C6 fully human CTLA-4 antibody (human IgG1, kappa) (antibody, V domains shown, also called mAb09; mAb009) VH: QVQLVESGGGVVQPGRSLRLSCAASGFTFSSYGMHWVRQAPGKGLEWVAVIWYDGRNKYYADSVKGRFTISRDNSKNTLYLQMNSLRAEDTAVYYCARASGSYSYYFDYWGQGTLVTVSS VL: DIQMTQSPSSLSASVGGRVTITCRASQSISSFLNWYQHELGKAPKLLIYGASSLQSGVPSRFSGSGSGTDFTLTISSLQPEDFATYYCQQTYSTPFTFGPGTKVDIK . Reported MFI at 200 nM?
Result :: 963
